study-system: human V1a receptor (Homo sapiens, UniProt P37288)
Construct: expressed in transfected cells
Sequence (P37288 whole entry): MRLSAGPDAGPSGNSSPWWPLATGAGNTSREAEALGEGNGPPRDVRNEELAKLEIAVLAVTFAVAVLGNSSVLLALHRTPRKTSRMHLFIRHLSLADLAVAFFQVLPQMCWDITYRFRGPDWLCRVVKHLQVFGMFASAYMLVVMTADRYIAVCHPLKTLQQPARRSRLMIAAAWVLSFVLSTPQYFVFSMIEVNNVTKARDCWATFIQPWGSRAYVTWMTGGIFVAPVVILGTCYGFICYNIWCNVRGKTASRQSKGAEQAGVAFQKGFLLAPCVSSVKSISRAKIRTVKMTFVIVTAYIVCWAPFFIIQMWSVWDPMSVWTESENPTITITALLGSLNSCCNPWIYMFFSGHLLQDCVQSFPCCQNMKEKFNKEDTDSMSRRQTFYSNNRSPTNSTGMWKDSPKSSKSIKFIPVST
experimental-protocol: cell-based
test-context: V1a-HEK cells; inhibition of vasopressin-stimulated intracellular calcium mobilization; read-out: V1 (functional) IC50
Exercise: state measured pIC50 for each of the molecules provided.
Notebook: values listed as pIC50 are -log10 of the concentration (mol/L).

Summary line: `COc1cc(C(=O)N2CC[C@]3(C=C(C(=O)NS(N)(=O)=O)CC3)Cc3ccccc32)ccc1NC(=O)c1cc(F)ccc1Cl` , human V1a receptor (Homo sapiens, UniProt P37288), reported pIC50 = 7.57

The reported pIC50 value, human V1a receptor (Homo sapiens, UniProt P37288), for `COc1cc(C(=O)N2CC[C@]3(C=C(C4=NCCN4)CC3)Cc3ccccc32)ccc1NC(=O)c1cc(F)ccc1Cl` reads 6.49

Readout pIC50 for `COc1cc(C(=O)N2CC[C@]3(C=C(c4ncc[nH]4)CC3)Cc3ccccc32)ccc1NC(=O)c1cc(F)ccc1Cl` , test system human V1a receptor (Homo sapiens, UniProt P37288), was 7.02

Here `COc1cc(C(=O)N2CC[C@]3(C=C(c4nnn[nH]4)CC3)Cc3ccccc32)ccc1NC(=O)c1cc(F)ccc1Cl` was tested on human V1a receptor (Homo sapiens, UniProt P37288), and its pIC50 came to 7.20

Measured pIC50 for this entry COc1cc(C(=O)N2CC[C@@]3(CCC(N4CCN(C)CC4)C3)Cc3ccccc32)ccc1NC(=O)c1cc(F)ccc1Cl (stereo partly drawn) on human V1a receptor (Homo sapiens, UniProt P37288): 6.15

pIC50 value, target or system human V1a receptor (Homo sapiens, UniProt P37288), for COc1cc(C(=O)N2CC[C@@]3(CCC(N(C)C)C3)Cc3ccccc32)ccc1NC(=O)c1cc(F)ccc1Cl (stereo partly drawn) : 6.31

* * *

Provide the recorded pIC50 for the entries that follow.
study-system: human V1a receptor (Homo sapiens)
Construct: expressed in transfected cells
experimental-protocol: cell-based
test-context: V1 (functional) IC50, V1a-HEK cells; inhibition of vasopressin-stimulated intracellular calcium mobilization
Quick note: pIC50 means taking -log10 of the concentration in moles per liter.

Lab note: compound COc1cc(C(=O)N2CC[C@@]3(CCC(=CC(N)=O)C3)Cc3ccccc32)ccc1NC(=O)c1cc(F)ccc1Cl [Cpd 32] tested on human V1a receptor (Homo sapiens); recorded pIC50 was 6.77

Kindly note: human V1a receptor (Homo sapiens), O=C(Nc1ccc(C(=O)N2CC[C@@]3(CCCC3=NO)Cc3ccccc32)cc1)c1cc(F)ccc1Cl [Cpd 7] , pIC50 value reported: 7.74

Record O=C(Nc1ccc(C(=O)N2CC[C@]3(CCCC3=NO)Cc3ccccc32)cc1)c1cc(F)ccc1Cl [Cpd 45] has human V1a receptor (Homo sapiens) pIC50 equal to 6.24

Noted pIC50 for CNC(=O)C=C1CC[C@@]2(CCN(C(=O)c3ccc(NC(=O)c4cc(F)ccc4Cl)c(OC)c3)c3ccccc3C2)C1 [Cpd 30] , tested on human V1a receptor (Homo sapiens): 6.68

Hey, human V1a receptor (Homo sapiens) data for NN=C1CCCC12CCN(C(=O)c1ccc(NC(=O)c3cc(F)ccc3Cl)cc1)c1ccccc1C2 (stereo not shown) [Cpd 1] : pIC50 came out at 8.00

pIC50 for human V1a receptor (Homo sapiens) with input CN(C)N=C1CCCC12CCN(C(=O)c1ccc(NC(=O)c3cc(F)ccc3Cl)cc1)c1ccccc1C2 (stereo not shown) [Cpd 3] equals 7.70

Lab entry: human V1a receptor (Homo sapiens) assay, compound COc1cc(C(=O)N2CC[C@@]3(CC[C@H](NS(N)(=O)=O)C3)Cc3ccccc32)ccc1NC(=O)c1cc(F)ccc1Cl [Cpd 34] , pIC50 = 6.60
